Tested on: Noggin (protein binding on small-molecule microarray)
Test: Noggin binders on small-molecule microarray, primary screen, biochemical, 635/667 nm fluorescence (AID 1095);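 also: score merges 667 nm feature fluorescence with signal to noise over triplicate slides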
Conditions: 635 nm fluorescence, higher = more signal
# key: entry, value: composite z-score
Respond using a number only.

compound	composite z-score
COC(=O)[C@H](Cc1ccccc1)N1CC(/C=C/C2CC2)=C[C@@H]1[C@@H](O)Cc1ccccc1	0.685

Return the recorded composite z-score value; entry: `C=CCN1C(=O)[C@@]2(O[C@@H](CCn3cc([C@H](O)c4ccccc4)nn3)[C@H]([Si](C)(C)c3ccc(OC)cc3)[C@H]2C)c2ccccc21`
0.442

// fetch composite z-score given entry `COC(=O)C(CC#Cc1ccc2c(c1)[C@]1(C(=O)N2)[C@H](C(=O)O)[C@H]2C(=O)O[C@H](c3ccccc3)[C@H](c3ccccc3)N2[C@@H]1c1ccccc1OCCO)C(=O)OC`
1.27

----------
The following compounds are listed with their measured z-score values.
Test: modulators of HCV replicon luciferase signal, primary screen, HCV replication inhibitor project, Huh7 cells, luciferase reporter (AID 1109);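 also: huh7 hepatoma cells harbouring a luciferase neomycin HCV replicon reporter; luciferase luminescence as measure of HCV replicon replication; test concentration not given here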
Settings: 48 h, higher = more signal

compound	z-score
[N-]=[N+]=NCc1ccccc1C[C@@]1(C(=O)N2CCCCC2)N=C(c2ccc(OCCCO)cc2)O[C@@H]1c1ccccc1N=[N+]=[N-]	-1.04

Read the entry `COCCCNC(=O)[C@]1(Cc2ccccc2N=[N+]=[N-])N=C(c2ccc(OCCCO)cc2)O[C@@H]1c1ccccc1N=[N+]=[N-]` and write its reported z-score.
-3.31

Specify z-score for `Cc1ccc(F)cc1S(=O)(=O)N[C@@H]1CCN(Cc2ccc(OC(C)C)cc2)C1` and stop.
-3.58

Please report the measured z-score for `CN(C)C(=O)[C@@]1(Cc2ccccc2N=[N+]=[N-])COC(c2ccc(OCCCO)cc2)=N1`
-1.69

Report measured z-score; entry is `C=C(/C(=C/C[C@@H](OC(=O)c1ccncc1)c1ccc(OCCO)cc1)c1cc(C(=O)OC)ccc1OC)C(C)C`
-1.88

Quote z-score reported for `CCCN1C(=O)[C@]2(Cc3ccccc3)N=C(c3ccc(OCCCO)cc3)O[C@@H]2c2ccccc21` please.
-2.7

Please report the measured z-score for C=CCC(OC(C)=O)[C@@H]1[C@@H](N(Cc2ccc(-c3ccccc3)cc2)C(=O)c2cccc3ccccc23)c2cc(OCCCO)ccc2N1C(=O)Cc1ccc2ccccc2c1 (some centres not stated)
-0.374

----------
Test: E. coli DRC41 culture turbidity changes, primary screen, E. coli filamentation inducer project, strain DRC41, OD650, 48 h (AID 1152);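 also: E. coli MC1000 strain DRC41 lacking acrAB efflux pump and sulA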
Conditions: E. coli DRC41 (acrAB sulA), higher = more signal, called active from +8 up or from −8 down
Returns 1 (yes) if the recorded z-score is greater than or equal to 0.3, and 0 (no) otherwise.

These solved cases illustrate the format of a correct answer.
compound	answerLabel
C=CC[C@]1(C(=O)N(C)C)N=C(c2ccc(OCCCO)cc2)O[C@H]1c1ccccc1N=[N+]=[N-]	1 (yes)
COCCOC(=O)N1C(=O)[C@@]2(c3cc(C#CC4=CCCCC4)ccc31)[C@H](c1ccc(O)cc1)N1[C@H](c3ccccc3)[C@H](c3ccccc3)OC(=O)[C@H]1[C@@H]2C(=O)Nc1nc2ccccc2s1	0 (no)
COCC(=C=CC[C@H](O)c1ccc(OCCO)cc1)C[C@H](O)COCc1ccccc1	1 (yes)

Attention now turns to another entry.
Hello, I need to know if `COc1ccc([Si](C)(C)[C@H]2[C@H](CCn3cc([C@H](O)c4ccccc4)nn3)O[C@@]3(C(=O)N(Cc4ccc(N5CCOC5=O)cc4)c4ccccc43)[C@@H]2C)cc1` has measured z-score not below 0.3. Thanks!
0 (no)

----------
Each item that follows carries a reported composite z-score.
Assay: binders of probe aHhip on microarray, primary screen, stem cell growth factor project, biochemical, small-molecule microarray, fluorescence 635/667 (AID 1087);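 also: score merges spot fluorescence at 667nm with spot signal to noise ratio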
Conditions: higher = more signal
Returns: the value as a bare number; no unit string appended.

compound	composite z-score
NC(N)=NCc1cn(CCc2c[nH]c3ccccc23)nn1	0.132
CC(=O)N1Cc2ccccc2C[C@]2(N=C(c3ccc(OCCCO)cc3)O[C@@H]2c2ccccc2)C1=O	-0.238
O=C1OCC=C[C@H]2OC34C=CCN(c5ccc(Cl)cc5)C(=O)[C@H]3N(CCCCCO)C(=O)[C@@H]4[C@@H]12 (some centres undefined)	-0.236

Return the recorded composite z-score value; entry: `C=C[C@H](COC(C)=O)NS(=O)(=O)c1ccc(Br)cc1`
-0.0618

Answer with the recorded composite z-score for the compound listed here: COc1ccc(NN2C(C(O)c3ccco3)C=CC3C(=O)N(C4CCCCC4)C(=O)C32)cc1 (centres undefined)
0.0216

State its composite z-score: `O=C1c2ccccc2[C@](Cc2ccccc2I)(C(=O)NCCN2CCOCC2)[C@H](c2ccc(CO)cc2)N1Cc1ccccc1`
0.519

Consider the compound `CCCC[C@@H]1C[C@H]1[C@@H](NC(=O)c1ccccc1)c1ccc(Cl)cc1` . State its measured composite z-score.
-0.134

State its composite z-score: CCCCN1CC=CC23O[C@@H]4/C=C\CCC(C)OC(=O)C4[C@H]2C(=O)N(CCCCCCO)[C@@H]3C1=O (some centres undefined)
-0.119

Annotate the compound `CCCc1cccc(=O)o1` with its measured composite z-score.
0.155

----------
Target: Dickkopf-related protein 1 (Homo sapiens)
Experiment: DKK1 binders on small-molecule microarrays, primary screen, biochemical, small-molecule microarray, 635 nm fluorescence scan (AID 1106);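 also: score merges emission near 667 nm with signal to noise over three replicate slides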
Conditions: DKK1 binding, higher = more signal
valueKind: composite z-score
Respond with the number and no other words.

Previously resolved entries follow.
compound	composite z-score
COCCOC(=O)N1C(=O)[C@@]2(c3cc(C#CC4(O)CCCCCC4)ccc31)[C@H](C(N)=O)[C@H]1C(=O)O[C@H](c3ccccc3)[C@H](c3ccccc3)N1[C@@H]2c1ccccc1OCCO	0.974
COc1ccc([Si](C)(C)[C@H]2[C@H](CCn3cc([C@H](O)c4ccccc4)nn3)O[C@@]3(C(=O)N(Cc4ccc(N5CCC5=O)cc4)c4ccccc43)[C@@H]2C)cc1	0.527
COc1ccc([Si](C)(C)[C@H]2[C@H](CCn3cc(CCO)nn3)O[C@@]3(C(=O)N(Cc4ccc(N5C(=O)c6cccc7cccc5c67)cc4)c4ccccc43)[C@@H]2C)cc1	0.652
CCCN1C(=O)[C@]2(Cc3ccccc3)N=C(c3ccc(OCCCO)cc3)O[C@@H]2c2ccccc21	0.223
CC(C)(C)N1CC=CC23O[C@@H]4C=CCOC(=O)[C@@H]4[C@H]2C(=O)N(CCCO)[C@@H]3C1=O (stereo partly specified)	-1.26

Return composite z-score (reported value) for this compound: `COc1ccc([Si](C)(C)[C@@H]2[C@@H](CCO)O[C@]3(C(=O)N(Cc4cccc(N5C(=O)c6ccccc6Oc6ccccc65)c4)c4ccccc43)[C@H]2C)cc1`
-0.812

----------
Known composite z-score of a selection of compounds
Biological target: Torsin-1A (Homo sapiens)
Test: torsin A binders from cell lysate, primary screen, small-molecule microarray, wild-type, 635/667 nm (AID 1149)
Conditions: COS7 hTOR1A-WT lysate, 635 nm fluorescence, higher = more signal
The answer should be written as a number, with no unit following it.

compound	composite z-score
O=C(O)[C@]1(Cc2ccccc2)N=C(c2ccc(OCCCO)cc2)O[C@@H]1c1ccccc1	-0.639
CC(C)(C)N1CC=CC23O[C@@H]4C=CCOC(=O)[C@@H]4[C@H]2C(=O)N(CCCO)[C@@H]3C1=O (some centres not stated)	0.213
COCCOC(=O)N1C(=O)[C@@]2(c3cc(C#CC4(O)CCCCCC4)ccc31)[C@H](C(N)=O)[C@H]1C(=O)O[C@H](c3ccccc3)[C@H](c3ccccc3)N1[C@@H]2c1ccc(O)cc1	-0.0243
COCCOC(=O)N1C(=O)[C@@]2(c3cc(C#CC4=CCCCC4)ccc31)[C@H](c1ccc(O)cc1)N1[C@H](c3ccccc3)[C@H](c3ccccc3)OC(=O)[C@H]1[C@@H]2C(=O)Nc1nc2ccccc2s1	0.776
C=C(COC)/C(=C/C[C@@H](OC(=O)c1ccncc1)c1ccc(OCCO)cc1)c1cnc2ccccc2c1	0.77
O=C1O[C@@H](c2ccccc2)[C@@H](c2ccccc2)N2[C@@H](c3ccc(O)cc3)[C@]3(C(=O)Nc4ccccc43)[C@@H](C(=O)Nc3nc4ccccc4s3)[C@H]12	0.0151

Query composite z-score for COc1cc2c(cc1O)C(C)N(Cc1cc3c(cc1Br)OCO3)CC2 (configuration not stated)
-1.12

----------
Measured composite z-score accompanies every entry in the list below.
Biological target: Dickkopf-related protein 1 (Homo sapiens)
Assay: DKK1 binders on small-molecule microarrays, primary screen, biochemical, small-molecule microarray, 635 nm fluorescence scan (AID 1106);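 also: score merges emission near 667 nm with signal to noise over three replicate slides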
Conditions: DKK1 binding, higher = more signal
Could you keep your reply to the number by itself?

compound	composite z-score
CN1C(=O)[C@@]2(CCS(=O)(=O)c3ccccc3)N=C(c3ccc(OCCCO)cc3)O[C@H]2c2ccccc21	0.172
C=CCNC(=O)[C@H]1[C@@H]2C(=O)O[C@@H](c3ccccc3)[C@@H](c3ccccc3)N2[C@@H](c2ccccc2OCCO)[C@]12C(=O)N(C(=O)OCCOC)c1ccc(C#CC3=CCCCC3)cc12	1.11
CC(C)N1CC=CC23O[C@@H]4C=CCCOC(=O)C4[C@H]2C(=O)N(CCO)[C@@H]3C1=O (some centres not stated)	-0.155

Give the observed composite z-score of `CCCC[C@@H]1C[C@H]1[C@@H](NC(=O)c1cccnc1)c1ccc(-c2ccccc2)cc1` for Dickkopf-related protein 1 (Homo sapiens).
-1.44

// output composite z-score; input `C=C[C@@H](C)[C@H](OC(=O)Nc1ccc(SC)cc1)c1ccc(OCCO)cc1` ; system Dickkopf-related protein 1 (Homo sapiens)
-0.773

Would you please give the reported composite z-score of `CC(C)CN1C(=O)[C@@]2(Cc3ccccc31)c1ccccc1C(=O)N(Cc1ccccc1C(F)(F)F)[C@H]2c1ccc(CO)cc1` with Dickkopf-related protein 1 (Homo sapiens)?
-1.05

Write down the reported composite z-score (system: Dickkopf-related protein 1 (Homo sapiens)) of `CCOC(=O)C[C@H]1[C@H](OC(=O)c2ccc(C(=O)c3ccccc3)cc2)[C@@H](NC(=O)c2ccc3ccccc3c2)c2cc(OCCCO)ccc2N1C(=O)c1ccccc1`
0.105
